- target: SARS-CoV-2 spike RBD (Wuhan-Hu-1) (Severe acute respiratory syndrome …, UniProt P0DTC2)
- method_notes: SPR
Consider the following binders; for each one, report its pKd.
Give bare numbers, as −log10 of the molar value.

- binder: "COVIC-305 (antibody, V domains shown) VH: QVQLVQSGAEVKKPGSSVRVSCKVSGYTFTGYYMHWVRQAPGQGLEWMGIINPSGGSTSYAQKFQGRVTMTRDTSTSTVYMELSSLRSEDTAVYYCARVRVGASDAFDIWGQGTMVTVSS VL: SYVLTQPPSVSVAPGQTARITCGGNNIGSKSVHWYQQKPGQAPVLVVYDDSDRPSGIPERFSGSNSGNTATLIISRVEAGDEADYYCQVWDSSSVHYVFGTGTKLTVLG"
  measurement: 8.14
- binder: "COVIC-301 (antibody, V domains shown) VH: EVQLVESGGGLIQPGGSLRLSCAASGVTVSSNYMSWVRQAPGKGLEWVSIIYPGGSRFYADSVKGRFTISRDNSKNTLYLQMNSLRAEDTAVYYCAREVRGWLDPWGQGTLVTVSS VL: DVVMTQSPSFLSASVGDRVTITCRASQGISNYLAWYQQKPGKAPKLLIYASSTLQSGVPSRFSGSGSGTEFTLTISSLQPEDFATYYCQHLNSYPHFGQGTRLEIKR"
  measurement: 8.81
- binder: "COVIC-359 (antibody, V domains shown) VH: EVQLVESGGGLVQPGGSLRLSCKASGISVAPHAVTWVRQAPGKGLEWIGVIASNADTYYASWAKGRFTISRDNSKNTLYLQMNSLRAEDTAVYYCARHPGSAGYGYTYYYAMDPWGQGTLVTVSS VL: DIQMTQSPSSLSASVGDRVTITCKASEDIRYGLNWYQQKPGKAPKLLIYGANTLEAGVPSRFSGSGSGTDYTLTISSLQPEDFATYYCQQGYSTPLTFGGGTKVEIK"
  measurement: 10.86
- binder: "COVIC-78 (antibody, V domains shown) VH: QVQLVQSGAEVKKPGSSVKVSCKASGGTFSTSTFNWVRQAPGQGLEWMGGIIPIFGTVNYAQKFQGRVTITADESTGTAYMELSSLRSEDTAVYYCATLGQWDLLPRWGQGTLVTVSS VL: KIVLTQSPDTLSLSPGERATLSCRASQSVDSNYLAWYQQKPGQAPRLLIYGASSRATGIPDRFSGSGSGTDFTLTISRLEPEDFAVYYCQQYGSSYTFGQGTKLEIK"
  measurement: 6.41

# pKd (binder: COVIC-335 (antibody, V domains shown) VH: QVQLVESGGGVVQPGRSLRLSCAASGFTFSRYGMHWVRQAPGKGLEWVALISSGGSNKYYADSVKGRFTISRDNSKNTLYLEMNSLRAEDTAVYYCAKDAIYDYIWGAYRENWFDPWGQGTLVTVSS VL: DIQMTQSPSSLSASVGDRVTITCRASQSISNYLNWYQQKPGKAPNLLIYAASSLQSGVPSRFSGSGSGTDFTLTISSLQPEDFATYYCQQTSSPPLTFGQGTKVEIK ) is 8.05

Data origin: paper PMC12014896
